# MIC annotations
Tested on: M. morganii GN5407
experiment-description: agar plate dilution method, MIC against M. morganii GN5407
Format: cell-based
measurement-conditions: Morganella morganii; M. morganii GN5407 (lactamase-producing strain); 10^6 CFU/ml, 37° C., 16 hours; read-out: Minimum Inhibitory Concentration (MIC)

>  <molecule>
Nc1nc(/C(=N/OCc2ccccc2)C(=O)NC2C(=O)N3C(C(=O)[O-])=C(CSc4cc[n+](CC(=O)O)cc4)CSC23)cs1 (stereo not drawn)

>  <MIC>
1.56 µg/mL

$$$$
>  <molecule>
Nc1nc(/C(=N/Oc2ccccc2)C(=O)NC2C(=O)N3C(C(=O)[O-])=C(CSc4cc[n+](CC(=O)O)cc4)CSC23)cs1 (stereo not drawn)

>  <MIC>
0.78 µg/mL

$$$$
>  <molecule>
Nc1nc(C(=NOC(C(=O)O)c2ccc(O)c(O)c2)C(=O)NC2C(=O)N3C(C(=O)[O-])=C(CSc4cc[n+](CC(=O)O)cc4)CSC23)cs1 (stereo not drawn)

>  <MIC>
0.1 µg/mL

$$$$
